test system: ATXN3 transcripts containing exon 4; experiment: ATXN3 quantitative splicing assay (qPCR, E4E5 transcripts containing exon 4); assay type: cell-based; settings: Human neuroblastoma SK-N-MC cells, 24 h treatment, qPCR primers/probe E4E5

Structure smiles string: N[C@H](Cc1sc2c(NCc3cccs3)snc2c1Cl)C(F)F
Test system: ATXN3 transcripts containing exon 4
IC50: 0.501 to 5 µM

Structure smiles string: C[C@@H](F)[C@H](N)Cc1sc2c(NCc3sccc3F)snc2c1Cl
Test system: ATXN3 transcripts containing exon 4
IC50: 5 to 10 µM

Structure smiles string: N[C@H](Cc1sc2c(NCc3cccs3)snc2c1Cl)CC(F)(F)F
Test system: ATXN3 transcripts containing exon 4
IC50: 0.501 to 5 µM

Structure smiles string: Cc1c(C[C@@H](N)CC2CC2)sc2c(NCc3cccs3)snc12
Test system: ATXN3 transcripts containing exon 4
IC50: 5 to 10 µM

Structure smiles string: N[C@@H](CF)Cc1sc2c(NCc3cccs3)snc2c1Cl
Test system: ATXN3 transcripts containing exon 4
IC50: 0.101 to 0.5 µM

Structure smiles string: Cc1c(C[C@@H](N)CC2CC2)sc2c(NCc3ccco3)snc12
Test system: ATXN3 transcripts containing exon 4
IC50: 0.501 to 5 µM

Structure smiles string: C[C@H](N)Cc1sc2c(NCc3cccs3)snc2c1Cl
Test system: ATXN3 transcripts containing exon 4
IC50: 0.501 to 5 µM

Structure smiles string: C[C@H](N)Cc1sc2c(NCc3cccs3)snc2c1CO
Test system: ATXN3 transcripts containing exon 4
IC50: 10 to 40 µM

Structure smiles string: Cc1c(C[C@H](C)N)sc2c(NCc3ccccc3)snc12
Test system: ATXN3 transcripts containing exon 4
IC50: 5 to 10 µM
